These measurements were taken from patent US8853230B2.

# Assay system: JAK1 (Homo sapiens, UniProt P23458)
# Construct: 5 μl of catalytic domain recombinant Kinase enzyme+Tyr peptide substrate (Invitrogen, Calif.)
# Sequence (P23458 875-1153 limits assumed): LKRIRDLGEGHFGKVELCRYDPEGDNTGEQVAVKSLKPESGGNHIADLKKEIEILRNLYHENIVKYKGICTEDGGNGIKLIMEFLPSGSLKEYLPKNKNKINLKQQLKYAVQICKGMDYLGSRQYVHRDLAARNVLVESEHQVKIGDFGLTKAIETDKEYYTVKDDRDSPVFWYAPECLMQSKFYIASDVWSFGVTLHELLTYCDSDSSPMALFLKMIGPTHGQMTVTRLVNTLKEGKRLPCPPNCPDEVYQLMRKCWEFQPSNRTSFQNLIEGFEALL
# Method description: Z'-LYTE kinase assay, JAK1 tyrosine phosphorylation activity
# Measurement context: read-out: JAK 1 IC50
Catalogue of IC50 values

{"Compound": "CNC(=O)CNc1nc(Nc2cccc(NC(C)=O)c2)ncc1C(N)=O [Example 72]", "Assay system": "JAK1 (Homo sapiens, UniProt P23458)", "IC50": "100 to 1000 nM"}

Param item = NC(=O)c1cnc(Nc2cccc(NC(=O)[C@H]3CCCO3)c2)nc1NCc1ccccc1 [Example 202] ; retrieve measured IC50.
10 to 100 nM

---

# Assay system: TYK2 (Homo sapiens, UniProt P29597)
# Construct: 5 μl of catalytic domain recombinant Kinase enzyme+Tyr peptide substrate (Invitrogen, Calif.)
# Sequence (P29597 897-1176 limits assumed): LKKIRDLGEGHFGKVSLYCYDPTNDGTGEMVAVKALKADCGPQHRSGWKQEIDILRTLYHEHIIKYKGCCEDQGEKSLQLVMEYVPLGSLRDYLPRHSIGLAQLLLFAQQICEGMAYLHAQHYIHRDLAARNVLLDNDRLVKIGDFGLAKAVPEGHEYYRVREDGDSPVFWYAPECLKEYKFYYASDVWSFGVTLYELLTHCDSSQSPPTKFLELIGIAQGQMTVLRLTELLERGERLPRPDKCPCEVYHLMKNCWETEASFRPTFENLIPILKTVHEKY
# Method description: Z'-LYTE kinase assay, TYK2 tyrosine phosphorylation activity
Assay readout: IC50

{"Compound": "NC(=O)c1cnc(Nc2cccc(NC(=O)N3CC=CC3)c2)nc1NCc1ccccc1 [Example 142]", "IC50": "1 to 10 nM"}
{"Compound": "CC(=O)Nc1cc(Nc2ncc(C(N)=O)c(NCc3ccccc3)n2)ccc1C [Example 155]", "IC50": "1 to 10 nM"}
{"Compound": "CC(=O)Nc1cc(Nc2ncc(C(N)=O)c(Nc3cccc4c3cnn4C)n2)ccc1OCCN1CCCC1 [Example 256]", "IC50": "10 to 100 nM"}

Param item = CC(=O)Nc1cccc(Nc2cc(NCc3cccc(Cl)c3)c(C(N)=O)cn2)c1 [Example 337] ; retrieve measured IC50.
100 to 1000 nM

Param item = CC(=O)Nc1cccc(Nc2ncc(C(N)=O)c(NCC3CCCNC3)n2)c1 (centres unmarked) [Example 116] ; retrieve measured IC50.
10 to 100 nM

Param item = CC(=O)Nc1cc(Nc2ncc(C(N)=O)c(Nc3cccc4nsnc34)n2)ccc1OCCCN1CCCCC1 [Example 243] ; retrieve measured IC50.
1 to 10 nM

Param item = CNC(=O)Nc1cc(Nc2ncc(C(N)=O)c(NCc3ccccc3)n2)ccc1F [Example 158] ; retrieve measured IC50.
10 to 100 nM

Param item = NC(=O)Nc1cccc(Nc2ncc(C(N)=O)c(NCc3ccccc3)n2)c1 [Example 38] ; retrieve measured IC50.
1 to 10 nM

---

# Assay system: JAK2 (Homo sapiens)
# Construct: 5 μl of catalytic domain recombinant Kinase enzyme+Tyr peptide substrate (Invitrogen, Calif.)
# Sequence (O60674 849-1124 limits assumed): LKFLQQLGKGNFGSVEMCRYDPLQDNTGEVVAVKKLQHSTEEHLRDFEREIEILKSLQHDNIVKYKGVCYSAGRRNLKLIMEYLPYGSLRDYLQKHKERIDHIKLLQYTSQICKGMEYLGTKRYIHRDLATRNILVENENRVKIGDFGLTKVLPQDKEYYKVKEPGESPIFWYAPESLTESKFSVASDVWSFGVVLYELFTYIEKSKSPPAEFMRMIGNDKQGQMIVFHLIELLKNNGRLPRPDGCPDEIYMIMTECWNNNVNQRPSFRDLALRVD
# Method description: Z'-LYTE kinase assay, JAK2 tyrosine phosphorylation activity
pIC50: −log10 of the molar value.
Catalogue of pIC50 values

Some solved cases for reference:
{"Compound": "NC(=O)c1cnc(Nc2ccc(F)c(NC(=O)N3CCC3)c2)nc1NCc1ccccc1 [Example 234]", "Result value": "7.00 to 8.00"}
{"Compound": "CC(=O)Nc1cccc(Nc2cc(NCC3CCC3)c(C(N)=O)cn2)c1 [Example 331]", "Result value": "6.00 to 7.00"}
{"Compound": "CC(=O)Nc1cc(Nc2ncc(C(N)=O)c(NCc3ccccc3)n2)ccc1Cl [Example 2]", "Result value": "7.00 to 8.00"}
{"Compound": "CC(=O)Nc1cc(Nc2ncc(C(N)=O)c(Nc3cccc4c3cnn4C)n2)ccc1OCCN1CCCC1 [Example 256]", "Result value": "8.00 to 9.00"}
{"Compound": "NC(=O)c1cnc(Nc2cccc(NC(=O)N3CCCCC3)c2)nc1NCc1ccccc1 [Example 218]", "Result value": "7.00 to 8.00"}
{"Compound": "CC(=O)Nc1cccc(Nc2ncc(C(N)=O)c(Nc3ccc(S(C)(=O)=O)cc3)n2)c1 [Example 197]", "Result value": "7.00 to 8.00"}

Item: COc1ccc(CNc2nc(Nc3cccc(NC(C)=O)c3)ncc2C(N)=O)cc1 [Example 68] Test system: JAK2 (Homo sapiens) Read-out: pIC50 Value: ?
6.00 to 7.00

Item: COCC(=O)Nc1cccc(Nc2ncc(C(N)=O)c(NCc3ccc(Cl)cc3)n2)c1 [Example 45] Test system: JAK2 (Homo sapiens) Read-out: pIC50 Value: ?
6.00 to 7.00

---

# Assay system: JAK2 (Homo sapiens)
# Construct: 5 μl of catalytic domain recombinant Kinase enzyme+Tyr peptide substrate (Invitrogen, Calif.)
# Method description: Z'-LYTE kinase assay, JAK2 tyrosine phosphorylation activity
pIC50: −log10 of the molar value.
Assay readout: pIC50

Some solved cases for reference:
{"Compound": "NC(=O)c1cnc(Nc2cccc(NC(=O)N3CCCC3)c2)cc1NCc1cc(F)cc(F)c1", "Result value": "6.00 to 7.00"}
{"Compound": "CN(C)[C@@H]1CCN(C(=O)Nc2cccc(Nc3cc(N[C@H](CO)c4ccccc4)c(C(N)=O)cn3)c2)C1", "Result value": "6.00 to 7.00"}

Param item = `NC(=O)c1cnc(Nc2cccc(NC(=O)N3CCCC3)c2)nc1NCc1cccc(F)c1` ; retrieve measured pIC50.
7.00 to 8.00

Param item = `NC(=O)c1cnc(Nc2cccc(NC(=O)N3CCC3)c2)nc1NCc1ccccc1` ; retrieve measured pIC50.
7.00 to 8.00

---

# Assay system: JAK1 (Homo sapiens, UniProt P23458)
# Construct: 5 μl of catalytic domain recombinant Kinase enzyme+Tyr peptide substrate (Invitrogen, Calif.)
# Method description: Z'-LYTE kinase assay, JAK1 tyrosine phosphorylation activity
# Measurement context: read-out: JAK 1 IC50
pIC50: −log10 of the molar value.
Assay readout: pIC50

Some solved cases for reference:
{"Compound": "CC(=O)Nc1cccc(Nc2cc(NCCc3ccccc3)c(C(N)=O)cn2)c1", "pIC50": "< 6.00"}
{"Compound": "CC(=O)Nc1cccc(Nc2ncc(C(N)=O)c(NCc3c(F)ccc(F)c3F)n2)c1", "pIC50": "7.00 to 8.00"}

Param item = `CC(=O)Nc1cccc(Nc2ncc(C(N)=O)c(NCc3ccc(F)cc3)n2)c1` ; retrieve measured pIC50.
6.00 to 7.00

---

# Assay system: JAK3 (Homo sapiens, UniProt P52333)
# Construct: 5 μl of catalytic domain recombinant Kinase enzyme+Tyr peptide substrate (Invitrogen, Calif.); purchased Invitrogen
# Sequence (P52333 822-1111 limits assumed): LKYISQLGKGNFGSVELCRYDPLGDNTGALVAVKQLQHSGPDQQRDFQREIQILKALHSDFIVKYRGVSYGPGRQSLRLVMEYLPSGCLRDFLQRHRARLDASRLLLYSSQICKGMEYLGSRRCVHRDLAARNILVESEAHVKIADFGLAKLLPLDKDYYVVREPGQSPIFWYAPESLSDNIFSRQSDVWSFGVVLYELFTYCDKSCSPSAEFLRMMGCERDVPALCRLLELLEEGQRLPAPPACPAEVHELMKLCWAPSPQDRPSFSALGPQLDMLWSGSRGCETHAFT
# Method description: Z'-LYTE kinase assay, JAK3 tyrosine phosphorylation activity
# Type: biochemical
pIC50: −log10 of the molar value.
Assay readout: pIC50

Some solved cases for reference:
{"Compound": "C[C@@H](Nc1nc(Nc2cccc(NC(=O)N3CCN(C)CC3)c2)ncc1C(N)=O)c1ccccc1", "pIC50": "8.00 to 9.00"}
{"Compound": "CNC(=O)Nc1cccc(Nc2ncc(C(N)=O)c(NCc3ccccc3F)n2)c1", "pIC50": "8.00 to 9.00"}

Param item = `NC(=O)c1cnc(Nc2cccc(NC(=O)N3CCC3)c2)nc1NCc1ccccc1` ; retrieve measured pIC50.
8.00 to 9.00

Param item = `COCC(=O)N(c1cccc(Nc2ncc(C(N)=O)c(N[C@H](C)c3ccccc3)n2)c1)C1CC1` ; retrieve measured pIC50.
8.00 to 9.00

Param item = `NC(=O)c1cnc(Nc2ccc(Cl)c(NC(=O)NC3CC3)c2)nc1NCc1ccccc1` ; retrieve measured pIC50.
7.00 to 8.00

Param item = `CC(=O)Nc1cccc(Nc2ncc(C(N)=O)c(N[C@H](CO)c3ccccc3)n2)c1` ; retrieve measured pIC50.
8.00 to 9.00

---

Catalogue of IC50 values
# Assay system: TYK2 (Homo sapiens, UniProt P29597)
# Construct: 5 μl of catalytic domain recombinant Kinase enzyme+Tyr peptide substrate (Invitrogen, Calif.); purchased Invitrogen
# Method description: Z'-LYTE kinase assay, TYK2 tyrosine phosphorylation activity
# Assay type: biochemical

Some solved cases for reference:
{"Compound": "CNC(=O)Nc1cc(Nc2ncc(C(N)=O)c(NC3CCCC3)n2)ccc1Cl", "Assay system": "TYK2 (Homo sapiens, UniProt P29597)", "IC50": "0.01 to 0.1 µM"}
{"Compound": "CC(=O)Nc1cccc(Nc2ncc(C(N)=O)c(N[C@H]3CCc4ccccc43)n2)c1", "Assay system": "TYK2 (Homo sapiens, UniProt P29597)", "IC50": "0.01 to 0.1 µM"}

Then this compound:
Param item = `CN(C)C(=O)Nc1cc(Nc2ncc(C(N)=O)c(NCc3ccccc3)n2)ccc1Cl` ; retrieve measured IC50.
0.01 to 0.1 µM

---

Catalogue of IC50 values
# Assay system: JAK1 (Homo sapiens, UniProt P23458)
# Construct: 5 μl of catalytic domain recombinant Kinase enzyme+Tyr peptide substrate (Invitrogen, Calif.)
# Method description: Z'-LYTE kinase assay, JAK1 tyrosine phosphorylation activity
# Measurement context: read-out: JAK 1 IC50

{"Molecule": "NC(=O)c1cnc(Nc2ccc(Cl)c(NC(=O)N3CCCC3)c2)nc1NCc1ccccc1", "IC50": "100 to 1000 nM"}
{"Molecule": "CNC(=O)Nc1cc(Nc2ncc(C(N)=O)c(NC3CCCC3)n2)ccc1Cl", "IC50": "10 to 100 nM"}

Param item = `CC(=O)Nc1cccc(Nc2ncc(C(N)=O)c(Nc3cccc4c3ccn4C)n2)c1` ; retrieve measured IC50.
1 to 10 nM

Param item = `CC(=O)Nc1cccc(Nc2cc(NCc3ccccc3F)c(C(N)=O)cn2)c1` ; retrieve measured IC50.
100 to 1000 nM

Param item = CC(=O)Nc1cccc(Nc2ncc(C(N)=O)c(NCC3CCCN(C(=O)Nc4ccc(F)cc4)C3)n2)c1 (centres unmarked) ; retrieve measured IC50.
10 to 100 nM
